# Test system: shunt pathway
# EXPERIMENT: Test Code 036 (C-Shunt inhibitor), lysis of human erythrocytes in autologous serum via shunt pathway activated by cobra venom factor
# Type: biochemical
# STATED CONDITIONS: activity in wells, serial dilution assay; higher well number indicates higher activity
PROPERTY LABEL: C-Shunt Inhibition 036 Wells

Worked cases, C-Shunt Inhibition 036 Wells given:
COMPOUND	TESTED SYSTEM	C-Shunt Inhibition 036 Wells
O=C(OC[C@H]1O[C@H](OC[C@H]2O[C@H](OC[C@H]3O[C@H](O[C@]4(COC(=O)C56CC7CC(CC(C7)C5)C6)O[C@H](COC(=O)C56CC7CC(CC(C7)C5)C6)[C@@H](OS(=O)(=O)O)[C@@H]4OS(=O)(=O)O)[C@H](OS(=O)(=O)O)[C@@H](OS(=O)(=O)O)[C@@H]3OS(=O)(=O)O)[C@H](OS(=O)(=O)O)[C@@H](OS(=O)(=O)O)[C@H]2OS(=O)(=O)O)[C@H](OS(=O)(=O)O)[C@@H](OS(=O)(=O)O)[C@H]1OS(=O)(=O)O)C12CC3CC(CC(C3)C1)C2	shunt pathway	+3 Wells
O=C(OC[C@H]1O[C@H](OC[C@H]2O[C@H](OC[C@H]3O[C@H](O[C@]4(COS(=O)(=O)O)O[C@H](COC(=O)C56CC7CC(CC(C7)C5)C6)[C@@H](OS(=O)(=O)O)[C@@H]4OS(=O)(=O)O)[C@H](OS(=O)(=O)O)[C@@H](OS(=O)(=O)O)[C@@H]3OS(=O)(=O)O)[C@H](OS(=O)(=O)O)[C@@H](OS(=O)(=O)O)[C@H]2OS(=O)(=O)O)[C@H](OS(=O)(=O)O)[C@@H](OS(=O)(=O)O)[C@H]1OS(=O)(=O)O)C12CC3CC(CC(C3)C1)C2 [6,6'"-Di-1-admantanecarboxylate-O--α-D-galactopyranosyl(1→6)]	shunt pathway	+2 Wells

As a next step, examine the compound that follows.
Inquiry: Which C-Shunt Inhibition 036 Wells is reported for this compound? "O=C(OC[C@H]1O[C@@](COS(=O)(=O)O)(O[C@H]2O[C@H](CO[C@H]3O[C@H](CO[C@H]4O[C@H](COS(=O)(=O)O)[C@H](OS(=O)(=O)O)[C@H](OS(=O)(=O)O)[C@H]4OS(=O)(=O)O)[C@H](OS(=O)(=O)O)[C@H](OS(=O)(=O)O)[C@H]3OS(=O)(=O)O)[C@@H](OS(=O)(=O)O)[C@H](OS(=O)(=O)O)[C@H]2OS(=O)(=O)O)[C@@H](OS(=O)(=O)O)[C@@H]1OS(=O)(=O)O)C12CC3CC(CC(C3)C1)C2"
Reply text: +5 Wells

From: patent US4359461A
